measurementDescription: total protein half-life in vivo (active degradation + dilution); higher = more stable protein
particulars: wild type E. coli NCM3722; growth: C-lim chemostat; doubling time 3 h
Listed below: total protein half-life in vivo values for each entry.

entrySequence	unitSymbol	total protein half-life in vivo
MATAKKITIHDVALAAGVSVSTVSLVLSGKGRISTATGERVNAAIEELGFVRNRQASALRGGQSGVIGLIVRDLSAPFYAELTAGLTEALEAQGRMVFLLHGGKDGEQLAQRFSLLLNQGVDGVVIAGAAGSSDDLRRMAEEKAIPVIFASRASYLDDVDTVRPDNMQAAQLLTEHLIRNGHQRIAWLGGQSSSLTRAERVGGYCATLLKFGLPFHSDWVLECTSSQKQAAEAITALLRHNPTISAVVCYNETIAMGAWFGLLKAGRQSGESGVDRYFEQQVSLAAFTDATPTTLDDIPVTWASTPARELGITLADRMMQKITHEETHSRNLIIPARLIAAK	h	2.7
MNIVVLISGNGSNLQAIIDACKTNKIKGTVRAVFSNKADAFGLERARQAGIATHTLIASAFDSREAYDRELIHEIDMYAPDVVVLAGFMRILSPAFVSHYAGRLLNIHPSLLPKYPGLHTHRQALENGDEEHGTSVHFVTDELDGGPVILQAKVPVFAGDSEDDITARVQTQEHAIYPLVISWFADGRLKMHENAAWLDGQRLPPQGYAADE	h	2.94
MKLSRISAINWNKISDDKDLEVWNRLTSNFWLPEKVPLSNDIPAWQTLTVVEQQLTMRVFTGLTLLDTLQNVIGAPSLMPDALTPHEEAVLSNISFMEAVHARSYSSIFSTLCQTKDVDAAYAWSEENAPLQRKAQIIQQHYRGDDPLKKKIASVFLESFLFYSGFWLPMYFSSRGKLTNTADLIRLIIRDEAVHGYYIGYKYQKNMEKISLGQREELKSFAFDLLLELYDNELQYTDELYAETPWADDVKAFLCYNANKALMNLGYEPLFPAEMAEVNPAILAALSPNADENHDFFSGSGSSYVMGKAVETEDEDWNF	h	2.18

----------
measurementDescription: total protein half-life in vivo (active degradation + dilution); higher = more stable protein
particulars: wild type E. coli NCM3722; growth: N-lim chemostat; doubling time 6 h
Decision: total protein half-life in vivo compared against 6 h; not below it gives fulfilled, below it gives not fulfilled.

entrySequence	group
MSEMIYGIHAVQALLERAPERFQEVFILKGREDKRLLPLIHALESQGVVIQLANRQYLDEKSDGAVHQGIIARVKPGRQYQENDLPDLIASLDQPFLLILDGVTDPHNLGACLRSADAAGVHAVIVPKDRSAQLNATAKKVACGAAESVPLIRVTNLARTMRMLQEENIWIVGTAGEADHTLYQSKMTGRLALVMGAEGEGMRRLTREHCDELISIPMAGSVSSLNVSVATGICLFEAVRQRS	not fulfilled
MKSVLKVSLAALTLAFAVSSHAADKKLVVATDTAFVPFEFKQGDKYVGFDVDLWAAIAKELKLDYELKPMDFSGIIPALQTKNVDLALAGITITDERKKAIDFSDGYYKSGLLVMVKANNNDVKSVKDLDGKVVAVKSGTGSVDYAKANIKTKDLRQFPNIDNAYMELGTNRADAVLHDTPNILYFIKTAGNGQFKAVGDSLEAQQYGIAFPKGSDELRDKVNGALKTLRENGTYNEIYKKWFGTEPK [P0AEQ3]	fulfilled
MQKRAIYPGTFDPITNGHIDIVTRATQMFDHVILAIAASPSKKPMFTLEERVALAQQATAHLGNVEVVGFSDLMANFARNQHATVLIRGLRAVADFEYEMQLAHMNRHLMPELESVFLMPSKEWSFISSSLVKEVARHQGDVTHFLPENVHQALMAKLA [P0A6I6]	not fulfilled
MSKPIVMERGVKYRDADKMALIPVKNVATEREALLRKPEWMKIKLPADSTRIQGIKAAMRKNGLHSVCEEASCPNLAECFNHGTATFMILGAICTRRCPFCDVAHGRPVAPDANEPVKLAQTIADMALRYVVITSVDRDDLRDGGAQHFADCITAIREKSPQIKIETLVPDFRGRMDRALDILTATPPDVFNHNLENVPRIYRQVRPGADYNWSLKLLERFKEAHPEIPTKSGLMVGLGETNEEIIEVMRDLRRHGVTMLTLGQYLQPSRHHLPVQRYVSPDEFDEMKAEALAMGFTHAACGPFVRSSYHADLQAKGMEVK	not fulfilled
MVTSCTGHVLDNQRATTRGVFSSGSHLVTLHFQPHPFFSCVTDAVNGARSRFSAFYPKANYGLQGSQPSDVRAHNRAANGACDEYKQLKVLSMGRQKAVIKARREAKRVLRRDSRSHKQREEESVTSLVQMGGVEAIGMARDSRDTSPILARNEAQLHYLKAIESKQLIFATGEAGCGKTWISAAKAAEALIHKDVDRIIVTRPVLQADEDLGFLPGDIAEKFAPYFRPVYDVLVRRLGASFMQYCLRPEIGKVEIAPFAYMRGRTFENAVVILDEAQNVTAAQMKMFLTRLGENVTVIVNGDITQCDLPRGVCSGLSDALERFEEDEMVGIVRFGKEDCVRSALCQRTLHAYS [P0A9K1]	not fulfilled
MTIHKKGQAHWEGDIKRGKGTVSTESGVLNQQPYGFNTRFEGEKGTNPEELIGAAHAACFSMALSLMLGEAGFTPTSIDTTADVSLDKVDAGFAITKIALKSEVAVPGIDASTFDGIIQKAKAGCPVSQVLKAEITLDYQLKS [P0C0L2]	not fulfilled
MIEILHEYWKPLLWTDGYRFTGVAITLWLLILSVVIGGVLALFLAIGRVSSNKYIQFPIWLFTYIFRGTPLYVQLLVFYSGMYTLEIVKGTEFLNAFFRSGLNCTVLALTLNTCAYTTEIFAGAIRSVPHGEIEAARAYGFSTFKMYRCIILPSALRIALPAYSNEVILMLHSTALAFTATVPDLLKIARDINAATYQPFTAFGIAAVLYLIISYVLISLFRRAEKRWLQHVKPSSTH [P0AEU3]	fulfilled
MQILADLLNTIPAIDSTAMSRAQRHIDGLLKPVGSLGKLEVLAIQLAGMPGLNGIPHVGKKAVLVMCADHGVWEEGVAISPKEVTAIQAENMTRGTTGVCVLAEQAGANVHVIDVGIDTAEPIPGLINMRVARGSGNIASAPAMSRRQAEKLLLDVICYTQELAKNGVTLFGVGELGMANTTPAAAIVSTITGRDPEEVVGIGANLPTDKLANKIDVVRRAITLNQPNPQDGVDVLAKVGGFDLVGIAGVMLGAASCGLPVLLDGFLSYAAALAACQMSPAIKPYLIPSHLSAEKGARIALSHLGLEPYLNMEMRLGEGSGAALAMPIIEAACAIYNNMGELAASNIVLPGNTTSDLNS	not fulfilled
MFILWYSASSTFGKDSDIVMGVRAQQKEKTRRSLVEAAFSQLSAERSFASLSLREVAREAGIAPTSFYRHFRDVDELGLTMVDESGLMLRQLMRQARQRIAKGGSVIRTSVSTFMEFIGNNPNAFRLLLRERSGTSAAFRAAVAREIQHFIAELADYLELENHMPRAFTEAQAEAMVTIVFSAGAEALDVGVEQRRQLEERLVLQLRMISKGAYYWYRREQEKTAIIPGNVKDE [P0ACU5]	not fulfilled
MWKRLLIVSAVSAAMSSMALAAPLTVGFSQVGSESGWRAAETNVAKSEAEKRGITLKIADGQQKQENQIKAVRSFVAQGVDAIFIAPVVATGWEPVLKEAKDAEIPVFLLDRSIDVKDKSLYMTTVTADNILEGKLIGDWLVKEVNGKPCNVVELQGTVGASVAIDRKKGFAEAIKNAPNIKIIRSQSGDFTRSKGKEVMESFIKAENNGKNICMVYAHNDDMVIGAIQAIKEAGLKPGKDILTGSIDGVPDIYKAMMDGEANASVELTPNMAGPAFDALEKYKKDGTMPEKLTLTKSTLYLPDTAKEELEKKKNMGY	not fulfilled

----------
Listed below: total protein half-life in vivo values for each entry.
measurementDescription: total protein half-life in vivo (active degradation + dilution); higher = more stable protein
particulars: wild type E. coli NCM3722; growth: N-lim chemostat; doubling time 6 h

entrySequence	unitSymbol	total protein half-life in vivo
MKKIGVILSGCGVYDGSEIHEAVLTLLAISRSGAQAVCFAPDKQQVDVINHLTGEAMTETRNVLIEAARITRGEIRPLAQADAAELDALIVPGGFGAAKNLSNFASLGSECTVDRELKALAQAMHQAGKPLGFMCIAPAMLPKIFDFPLRLTIGTDIDTAEVLEEMGAEHVPCPVDDIVVDEDNKIVTTPAYMLAQNIAEAASGIDKLVSRVLVLAE [P0ABU5]	h	4.79
MRTTIAVVLGAISLTSAFVFADKPDVARSANDEVSTLFFGHDDRVPVNDTTQSPWDAVGQLETASGNLCTATLIAPNLALTAGHCLLTPPKGKADKAVALRFVSNKGLWRYEIHDIEGRVDPTLGKRLKADGDGWIVPPAAAPWDFGLIVLRNPPSGITPLPLFEGDKAALTAALKAAGRKVTQAGYPEDHLDTLYSHQNCEVTGWAQTSVMSHQCDTLPGDSGSPLMLHTDDGWQLIGVQSSAPAAKDRWRADNRAISVTGFRDKLDQLSQK	h	5.29
MVSSFTSAPRSGFYYFAQGWKLVSQPGIRRFVILPLLVNILLMGGAFWWLFTQLDVWIPTLMSYVPDWLQWLSYLLWPLAVISVLLVFGYFFSTIANWIAAPFNGLLAEQLEARLTGATPPDTGIFGIMKDVPRIMKREWQKFAWYLPRAIVLLILYFIPGIGQTVAPVLWFLFSAWMLAIQYCDYPFDNHKVPFKEMRTALRTRKITNMQFGALTSLFTMIPLLNLFIMPVAVCGATAMWVDCYRDKHAMWR [P0A6J3]	h	6.67
MLNKLSLLLKDAGISLTDHQKNQLIAYVNMLHKWNKAYNLTSVRDPNEMLVRHILDSIVVAPYLQGERFIDVGTGPGLPGIPLSIVRPEAHFTLLDSLGKRVRFLRQVQHELKLENIEPVQSRVEEFPSEPPFDGVISRAFASLNDMVSWCHHLPGEQGRFYALKGQMPEDEIALLPEEYQVESVVKLQVPALDGERHLVVIKANKI [P0A6U5]	h	5.09
MRIGHGFDVHAFGGEGPIIIGGVRIPYEKGLLAHSDGDVALHALTDALLGAAALGDIGKLFPDTDPAFKGADSRELLREAWRRIQAKGYTLGNVDVTIIAQAPKMLPHIPQMRVFIAEDLGCHMDDVNVKATTTEKLGFTGRGEGIACEAVALLIKATK	h	4.9
MIIGNIHNLQPWLPQELRQAIEHIKAHVTAETPKGKHDIEGNRLFYLISEDMTEPYEARRAEYHARYLDIQIVLKGQEGMTFSTQPAGAPDTDWLADKDIAFLPEGVDEKTVILNEGDFVVFYPGEVHKPLCAVGAPAQVRKAVVKMLMA [P0AF96]	h	3.18
MRTVKVFEEAWPLHTPFVIARGSRSEARVVVVELEEEGIKGTGECTPYPRYGESDASVMAQIMSVVPQLEKGLTREELQKILPAGAARNALDCALWDLAARRQQQSLADLIGITLPETVITAQTVVIGTPDQMANSASTLWQAGAKLLKVKLDNHLISERMVAIRTAVPDATLIVDANESWRAEGLAARCQLLADLGVAMLEQPLPAQDDAALENFIHPLPICADESCHTRSNLKALKGRYEMVNIKLDKTGGLTEALALATEARAQGFSLMLGCMLCTSRAISAALPLVPQVSFADLDGPTWLAVDVEPALQFTTGELHL	h	4.81
MNNRVHQGHLARKRFGQNFLNDQFVIDSIVSAINPQKGQAMVEIGPGLAALTEPVGERLDQLTVIELDRDLAARLQTHPFLGPKLTIYQQDAMTFNFGELAEKMGQPLRVFGNLPYNISTPLMFHLFSYTDAIADMHFMLQKEVVNRLVAGPNSKAYGRLSVMAQYYCNVIPVLEVPPSAFTPPPKVDSAVVRLVPHATMPHPVKDVRVLSRITTEAFNQRRKTIRNSLGNLFSVEVLTGMGIDPAMRAENISVAQYCQMANYLAENAPLQES	h	5.24
MSKRLPPLNALRVFDAAARHLSFTRAAEELFVTQAAVSHQIKSLEDFLGLKLFRRRNRSLLLTEEGQSYFLDIKEIFSQLTEATRKLQARSAKGALTVSLLPSFAIHWLVPRLSSFNSAYPGIDVRIQAVDRQEDKLADDVDVAIFYGRGNWPGLRVEKLYAEYLLPVCSPLLLTGEKPLKTPEDLAKHTLLHDASRRDWQTYTRQLGLNHINVQQGPIFSHSAMVLQAAIHGQGVALANNVMAQSEIEAGRLVCPFNDVLVSKNAFYLVCHDSQAELGKIAAFRQWILAKAAAEQEKFRFRYEQ [P0A9F6]	h	6.86
MNMKTIEDVFIHLLSDTYSAEKQLTRALAKLARATSNEKLSQAFHAHLEETHGQIERIDQVVESESNLKIKRMKCVAMEGLIEEANEVIESTEKNEVRDAALIAAAQKVEHYEIASYGTLATLAEQLGYRKAAKLLKETLEEEKATDIKLTDLAINNVNKKAENKA	h	4.88
MENQPKLNSSKEVIAFLAERFPHCFSAEGEARPLKIGIFQDLVDRVAGEMNLSKTQLRSALRLYTSSWRYLYGVKPGATRVDLDGNPCGELDEQHVEHARKQLEEAKARVQAQRAEQQAKKREAAATAGEKEDAPRRERKPRPTTPRRKEGAERKPRAQKPVEKAPKTVKAPREEQHTPVSDISALTVGQALKVKAGQNAMDATVLEITKDGVRVQLNSGMSLIVRAEHLVF	h	3.07
MKLKNTLLASALLSAMAFSVNAATELTPEQAAAVKPFDRVVVTGRFNAIGEAVKAVSRRADKEGAASFYVVDTSDFGNSGNWRVVADLYKADAEKAEETSNRVINGVVELPKDQAVLIEPFDTVTVQGFYRSQPEVNDAITKAAKAKGAYSFYIVRQIDANQGGNQRITAFIYKKDAKKRIVQSPDVIPADSEAGRAALAAGGEAAKKVEIPGVATTASPSSEVGRFFETQSSKGGRYTVTLPDGTKVEELNKATAAMMVPFDSIKFSGNYGNMTEVSYQVAKRAAKKGAKYYHITRQWQERGNNLTVSADLYK	h	5.47
